test system: JCK; assay: qHTS profiling for inhibitors of Plasmodium falciparum proliferation (AID 504749); further: nearly all actives have a fitted effect of over 60% in size; details: P. falciparum in erythrocytes, SYBR Green DNA, 72 h; series mostly up to 28.7 µM
Records with an inconclusive call do not appear. Calls of active or inactive are those of the source. The call rests on the fitted dose curve; in most records, active means well fitted inhibition curve with a large enough effect; inconclusive means small, poorly fitted or top-dose-only effect; inactive means flat fitted curve, though single readings scatter.
measurement.label: outcome

Some solved cases for reference:
compound: C[C@@H](N)[C@@H](O)c1ccc(O)c(O)c1
outcome: inactive
--
compound: OCC(O)[C@H]1O[C@@H]2O[C@H](C(Cl)(Cl)Cl)O[C@@H]2[C@H]1O (stereo partly specified)
outcome: inactive
--
compound: CCCCCC(O)C1C(=O)OC(C)C(O)\C=C/C=C\C=C/C=C\C=C(\C)C(O)C(O)C(O)CC(O)CC(O)CC(O)CC(O)CC1O (stereo unspecified)
outcome: inactive
--
compound: CC(CO)NC(=O)C1C=C2c3cccc4[nH]cc(c34)CC2N(C)C1 (stereo unspecified)
outcome: inactive
--
compound: CC(Cc1ccccc1)N(C)C (stereo unspecified)
outcome: inactive
--
compound: C=C1Nc2ccccc2C(=O)N1c1ccccc1C
outcome: inactive
--
compound: CC12CCC3C4CCC(=O)C(O)=C4CCC3C1CCC2OC(=O)CCC1CCCC1 (stereo unspecified)
outcome: inactive
--
compound: C#CCN1CC(=O)N(COC(=O)[C@@H]2[C@@H](C=C(C)C)C2(C)C)C1=O
outcome: inactive

Data request: Reported outcome, compound CCCC(C)C1(CC)C(=O)NC(=S)NC1=O (stereo unspecified) : ____
Data returned: inactive

Data request: One more compound: CC(=O)Oc1ccc2c3c1OC1[C@@H](OC(C)=O)C=C[C@H]4[C@H](C2)N(C)CC[C@]314 (stereo partly specified)
Data returned: inactive

Data request: C[C@]12C=CC(=O)C=C1CC[C@@H]1C2CC[C@]2(C)OC(=O)CCC12 (stereo partly specified) ?
Data returned: inactive

Data request: What about this compound? `CCOC(=O)c1cncn1[C@@H](C)c1ccccc1`
Data returned: inactive

====

molecular target: Glucocorticoid receptor (Homo sapiens) (UniProt P04150); assay: GR-GFP Redistribution (AID 450); conditions: U2OS GR-GFP nuclear translocation, laser cytometry, 2 h; further: potency means the concentration at half of the fitted maximal effect
Sequence (P04150 whole entry, looked up): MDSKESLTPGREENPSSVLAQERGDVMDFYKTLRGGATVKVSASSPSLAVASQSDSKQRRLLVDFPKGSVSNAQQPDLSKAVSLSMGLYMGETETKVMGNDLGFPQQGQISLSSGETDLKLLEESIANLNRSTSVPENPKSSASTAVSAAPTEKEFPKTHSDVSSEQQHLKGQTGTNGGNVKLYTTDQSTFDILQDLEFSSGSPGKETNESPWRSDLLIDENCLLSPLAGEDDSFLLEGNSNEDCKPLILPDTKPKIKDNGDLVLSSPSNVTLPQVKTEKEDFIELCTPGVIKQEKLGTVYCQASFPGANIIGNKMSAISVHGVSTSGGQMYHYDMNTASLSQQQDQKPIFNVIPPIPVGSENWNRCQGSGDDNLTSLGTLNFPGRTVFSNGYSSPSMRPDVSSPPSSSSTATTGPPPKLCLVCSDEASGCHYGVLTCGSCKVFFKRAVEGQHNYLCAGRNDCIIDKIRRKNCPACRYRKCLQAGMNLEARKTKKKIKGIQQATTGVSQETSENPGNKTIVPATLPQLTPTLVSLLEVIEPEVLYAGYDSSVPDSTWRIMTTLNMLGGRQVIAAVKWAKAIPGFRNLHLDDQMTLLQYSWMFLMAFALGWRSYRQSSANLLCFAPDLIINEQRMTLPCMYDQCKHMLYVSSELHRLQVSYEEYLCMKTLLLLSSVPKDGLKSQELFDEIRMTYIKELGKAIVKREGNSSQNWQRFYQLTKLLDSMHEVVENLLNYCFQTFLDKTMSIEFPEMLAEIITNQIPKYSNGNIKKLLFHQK
Active and inactive are the calls of the source.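 How the source made its calls: active means compounds whose dose series gives a full or clear partial fitted curve of increased nuclear translocation; inconclusive means weak partial curve or effect only at the top dose; inactive means no dose-dependent translocation response.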
measurement.label: Potency

Worked examples, 3 compounds total:
smiles.string: CCCCOCCCn1c(N)c(C(=O)OCCOC)c2nc3ccccc3nc21
Potency: > 20.6 µM (inactive)
//
smiles.string: CC(=NCCO)c1c(O)n(C)c(=O)n(C)c1=O
Potency: > 20.6 µM (inactive)
//
smiles.string: COc1ccc(Cn2c(O)c(C=NCCCn3ccnc3)c(=O)[nH]c2=O)cc1
Potency: > 20.6 µM (inactive)

Data request: Reported Potency for Glucocorticoid receptor (Homo sapiens) (UniProt P04150), given `Oc1ccc2c3c1O[C@@H]1[C@@H](O)CC[C@]4(O)[C@H](C2)N(CC2CCC2)CC[C@@]314` ?
Data returned: > 46 µM (inactive)

Data request: Same read-out for `O[C@@H]1CCCC[C@H]1N1CCC(c2ccccc2)CC1` ?
Data returned: > 46 µM (inactive)

Data request: `C[C@@]12CC[C@H](O)C[C@@H]1CC[C@H]1[C@H]2C[C@@H](O)[C@]2(C)[C@@H](C3=CC(=O)OC3)CC[C@@]12O` , same question.
Data returned: > 46 µM (inactive)

Data request: Entry `COC[C@@H]1OC(=O)c2coc3c2[C@]1(C)C1=C(C3=O)[C@H]2CCC(=O)[C@]2(C)C[C@@H]1OC(C)=O` please
Data returned: > 46 µM (inactive)

Data request: Next: `Cc1c(N=Cc2c(O)n(CCc3ccc(F)cc3)c(=O)[nH]c2=O)c(=O)n(-c2ccccc2)n1C`
Data returned: > 20.6 µM (inactive)

Data request: How about this compound: `C[C@@H](Cc1ccc2c(c1)OC(C(=O)O)(C(=O)O)O2)NC[C@H](O)c1cccc(Cl)c1`
Data returned: > 46 µM (inactive)
